# subject-of-test: chemokine receptor CXCR7 (UniProt P25106 1-362, limits assumed)
# Sequence (P25106 whole entry): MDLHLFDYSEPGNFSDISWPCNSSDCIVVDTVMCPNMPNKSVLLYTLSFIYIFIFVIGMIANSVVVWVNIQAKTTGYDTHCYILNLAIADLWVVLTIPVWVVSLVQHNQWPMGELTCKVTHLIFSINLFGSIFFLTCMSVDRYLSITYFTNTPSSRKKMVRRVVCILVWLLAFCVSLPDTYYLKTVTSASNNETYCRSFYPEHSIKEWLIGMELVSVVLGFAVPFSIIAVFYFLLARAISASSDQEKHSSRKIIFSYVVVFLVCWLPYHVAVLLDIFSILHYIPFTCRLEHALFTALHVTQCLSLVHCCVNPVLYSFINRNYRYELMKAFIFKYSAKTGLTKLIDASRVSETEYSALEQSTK
# experiment: cell-based or functional assay
Square brackets hold non-standard residues; d marks the D form. Primed or numbered codes have the meaning given here. dPro(cis-4-NH2) = N[C@H]1CN[C@@H](C(=O)O)C1; Pro(3S-OH) = O=C(O)[C@H]1NCC[C@@H]1O; Tic = O=C(O)[C@@H]1Cc2ccccc2CN1; dTic = O=C(O)[C@H]1Cc2ccccc2CN1; Orn = NCCC[C@H](N)C(=O)O; dPip′ = not defined here; A56 = not defined here
# β-Arrestin EC50 per entry
Report only the number, with the unit µM understood.

Completed entries (count: 2):
[[record]]
binder = "cyclo(W[dF]WR[dPro(cis-4-NH2)][Tic]) (SMILES N=C(N)NCCC[C@@H]1NC(=O)[C@H](Cc2c[nH]c3ccccc23)NC(=O)[C@@H](Cc2ccccc2)NC(=O)[C@H](Cc2c[nH]c3ccccc23)NC(=O)[C@@H]2Cc3ccccc3CN2C(=O)[C@H]2C[C@@H](N)CN2C1=O) [cyclo(-Trp-^DPhe-Trp-Arg-^DPro((4R)NH2)-Tic-)]"
assay_value = 0.0061

[[record]]
binder = "cyclo(I[dR]RW[dTic]T) (SMILES CC[C@H](C)[C@@H]1NC(=O)[C@H]([C@@H](C)O)NC(=O)[C@H]2Cc3ccccc3CN2C(=O)[C@H](Cc2c[nH]c3ccccc23)NC(=O)[C@H](CCCNC(=N)N)NC(=O)[C@@H](CCCNC(=N)N)NC1=O) [cyclo(-Ile-^DArg-Arg-Trp-^DTic-Thr-)]"
assay_value = 0.0142


Could you now consider this next binder?
Entry cyclo(W[dF]W[Orn](A56)[dPip′][Pro(3S-OH)]) (reading uncertain; also: printed as cyclo(-Trp-^DPhe-Trp-Orn(A56)-^DPip-Pro((3S)OH)-)) [cyclo(-Trp-^DPhe-Trp-Orn(A56)-^DPip-Pro((3S)OH)-)] : reported β-Arrestin EC50 = ?
0.014
